Provenance of the data: the supplement of paper PMC10627819

Test system: S. pneumoniae D39V
PROTOCOL DETAILS: Bliss interaction score (quartile over a dose matrix) (fitness difference); higher = more antagonism (negative = synergy);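 also: first quartile when negative (synergy) and third quartile when positive (antagonism)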
PROPERTY NAME: Bliss interaction score
Reply with the value as a number alone.

Query (molecule): COc1c(N2C[C@@H]3CCCN[C@@H]3C2)c(F)cc2c(=O)c(C(=O)O)cn(C3CC3)c12 [Moxifloxacin] + COc1ccc(C[C@H](N)C(=O)N[C@H]2[C@@H](O)[C@H](n3cnc4c(N(C)C)ncnc43)O[C@@H]2CO)cc1 [Puromycin] ; field requested: Bliss interaction score 0.101

Dear colleague, I am looking for the recorded Bliss interaction score of the following molecule: O=C(O[C@@H]1Cc2c(O)cc(O)cc2O[C@@H]1c1cc(O)c(O)c(O)c1)c1cc(O)c(O)c(O)c1 [EGCG] + CCC[C@@H]1C[C@@H](C(=O)N[C@@H]([C@H]2O[C@H](SC)[C@H](O)[C@@H](O)[C@H]2O)[C@@H](C)O)N(C)C1 [Lincomycin] -0.112

Item under review: C[C@@H](O)[C@H]1C(=O)N2C(C(=O)O)=C(SCCNC=N)C[C@H]12 [Imipenem] + C/C(=C\C(=O)OCCCCCCCCC(=O)O)C[C@@H]1OC[C@H](C[C@@H]2O[C@H]2[C@@H](C)[C@H](C)O)[C@@H](O)[C@H]1O [Pseudomonic acid] . Reported Bliss interaction score? -0.146

API: the following record is the query input.
Name the reported Bliss interaction score value associated with the molecule C[C@@H](O)[C@H]1C(=O)N2C(C(=O)O)=C(SCCNC=N)C[C@H]12 [Imipenem] + O=C1CN(/N=C/c2ccc([N+](=O)[O-])o2)C(=O)N1 [Nitrofurantoin] 0.049

* * *

Test system: B. subtilis 168
PROTOCOL DETAILS: Bliss interaction score (quartile over a dose matrix) (fitness difference); higher = more antagonism (negative = synergy)
PROPERTY NAME: Bliss interaction score
Just the number, please, no unit after it.

Examples from the recorded data:
Name the reported Bliss interaction score value associated with the compound CC(=O)OC[C@H]1O[C@@H]([S-])[C@H](OC(C)=O)[C@@H](OC(C)=O)[C@@H]1OC(C)=O.CCP(CC)CC.[Au+] [Auranofin] + CCC[C@@H]1C[C@@H](C(=O)N[C@@H]([C@H]2O[C@H](SC)[C@H](O)[C@@H](O)[C@H]2O)[C@@H](C)O)N(C)C1 [Lincomycin] 0.066

Consider the compound O=C(N[C@H](CO)[C@H](O)c1ccc([N+](=O)[O-])cc1)C(Cl)Cl [Chloramphenicol] + COc1cccc2c1C(=O)c1c(O)c3c(c(O)c1C2=O)C[C@@](O)(C(=O)CO)C[C@@H]3O[C@H]1C[C@H](N)[C@H](O)[C@H](C)O1 [Doxorubicin] and give its measured Bliss interaction score. -0.0604

Continuing:
Fill in the blank: the reported Bliss interaction score of CC(=O)OC[C@H]1O[C@@H]([S-])[C@H](OC(C)=O)[C@@H](OC(C)=O)[C@@H]1OC(C)=O.CCP(CC)CC.[Au+] [Auranofin] + C/C(=C\C(=O)OCCCCCCCCC(=O)O)C[C@@H]1OC[C@H](C[C@@H]2O[C@H]2[C@@H](C)[C@H](C)O)[C@@H](O)[C@H]1O [Pseudomonic acid] is ____. 0.0268

* * *

System: S. aureus DSM 20231
PROTOCOL DETAILS: Bliss interaction score (quartile over a dose matrix) (fitness difference); higher = more antagonism (negative = synergy)
Here, each record is paired with measured Bliss interaction score data.
Provide a numeric answer; units are not to be included.

What is its Bliss interaction score for S. aureus DSM 20231? Entry: N[C@@H]1CONC1=O [CycloserineD] + CC(=O)NC[C@H]1CN(c2ccc(N3CCOCC3)c(F)c2)C(=O)O1 [Linezolid] -0.125

***
Provide the documented Bliss interaction score with S. aureus DSM 20231 as the system for CCC[C@@H]1C[C@@H](C(=O)N[C@@H]([C@H]2O[C@H](SC)[C@H](O)[C@@H](O)[C@H]2O)[C@@H](C)O)N(C)C1 [Lincomycin] + CN[C@@H]1[C@H](O)[C@H](NC)[C@H]2O[C@@]3(O)C(=O)C[C@@H](C)O[C@H]3O[C@@H]2[C@H]1O [Spectinomycin] -0.175

Report Bliss interaction score for CC[C@H]1OC(=O)[C@H](C)[C@@H](O[C@H]2C[C@@](C)(OC)[C@@H](O)[C@H](C)O2)[C@H](C)[C@@H](O[C@@H]2O[C@H](C)C[C@H](N(C)C)[C@H]2O)[C@](C)(OC)C[C@@H](C)C(=O)[C@H](C)[C@@H](O)[C@]1(C)O [Clarithromycin] + C[C@H]1c2cccc(O)c2C(=O)C2=C(O)[C@]3(O)C(=O)C(C(N)=O)=C(O)[C@@H](N(C)C)[C@@H]3[C@@H](O)[C@@H]21 [Doxycycline] tested on S. aureus DSM 20231. -0.161

Form field: Bliss interaction score recorded for CC(=O)O[C@H]1C[C@@]2(C)[C@@H](C[C@@H](O)[C@H]3[C@@]4(C)CC[C@@H](O)[C@@H](C)[C@@H]4CC[C@@]32C)/C1=C(\CCC=C(C)C)C(=O)O [Fusidic acid] + CC(C)(O)c1ccccc1CC[C@@H](SCC1(CC(=O)O)CC1)c1cccc(/C=C/c2ccc3ccc(Cl)cc3n2)c1 [Montelukast] with S. aureus DSM 20231 (enter value) -0.241

* * *

Tested on: S. aureus Newman
PROTOCOL DETAILS: Bliss interaction score (quartile over a dose matrix) (fitness difference); higher = more antagonism (negative = synergy)
PROPERTY NAME: Bliss interaction score
Reply with the value as a number alone.

Some entries whose results are on file:
May I ask what Bliss interaction score has been recorded for CC(=O)O[C@H]1C[C@@]2(C)[C@@H](C[C@@H](O)[C@H]3[C@@]4(C)CC[C@@H](O)[C@@H](C)[C@@H]4CC[C@@]32C)/C1=C(\CCC=C(C)C)C(=O)O [Fusidic acid] + CC(=O)NC[C@H]1CN(c2ccc(N3CCOCC3)c(F)c2)C(=O)O1 [Linezolid] ? -0.0198

Find the recorded Bliss interaction score belonging to CCC[C@@H]1C[C@@H](C(=O)N[C@@H]([C@H]2O[C@H](SC)[C@H](O)[C@@H](O)[C@H]2O)[C@@H](C)O)N(C)C1 [Lincomycin] + CN(N=O)C(=O)N[C@@H](C=O)[C@@H](O)[C@H](O)[C@H](O)CO [Streptozotocin] and report it. 0.125

Item N[C@@H]1CONC1=O [CycloserineD] + C[n+]1ccc(-c2cc[n+](C)cc2)cc1 [Paraquat] has what recorded Bliss interaction score? 0.0488

For the next question, use this molecule.
Request the reported Bliss interaction score associated with N[C@@H]1CONC1=O [CycloserineD] + CC1=C\[C@@H](O)CC(=O)Cc2nc(co2)C(=O)N2CCC=C2C(=O)O[C@H](C(C)C)[C@H](C)/C=C/C(=O)NC\C=C\1 [Virginiamycin M1] 0.0587
